- assay: self-splicing fitness, log relative to wild type (ln ratio); higher = more splicing; Tetrahymena group I intron in knt gene, E. coli kanamycin selection, DiMSum; sequences stand for … in CUCUCU…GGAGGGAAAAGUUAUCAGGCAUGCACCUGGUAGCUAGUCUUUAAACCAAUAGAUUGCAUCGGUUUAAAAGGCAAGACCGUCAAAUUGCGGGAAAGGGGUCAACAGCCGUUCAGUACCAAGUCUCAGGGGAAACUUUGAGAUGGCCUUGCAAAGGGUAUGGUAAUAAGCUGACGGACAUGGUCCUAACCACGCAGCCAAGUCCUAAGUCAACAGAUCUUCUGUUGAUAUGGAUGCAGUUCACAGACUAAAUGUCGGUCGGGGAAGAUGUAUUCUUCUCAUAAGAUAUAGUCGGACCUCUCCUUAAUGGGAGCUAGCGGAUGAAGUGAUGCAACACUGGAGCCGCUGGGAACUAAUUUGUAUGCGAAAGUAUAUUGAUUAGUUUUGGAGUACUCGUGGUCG;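 further: selection with 25 µg/mL kanamycin versus none on LB agar overnight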
- experimental conditions: 30 °C
List of self-splicing fitness (ln) values.
quantity name: self-splicing fitness (ln)

{"columns": ["chain", "result"],
 "data": [
  ["CAGGAGCAAUAUUACGGAGG", -2.02],
  ["AUACAGCAAUAUUACGCUAA", -1.96],
  ["ACCGAGCAAUAUUACGAGCC", -3.21],
  ["AUGGAGCAAUAUUACGUCUA", -1.38],
  ["AUUGAGCAAUAUUACGAAAC", -2.48],
  ["CAAAAGCAAUAUUACGCGUU", -3.91],
  ["AGCCAGCAAUAUUACGAAGA", -1.84],
  ["AGUAAGCAAUAUUACGCUAU", -4.08],
  ["UUUGAGCAAUAUUACGACAU", -3.67],
  ["ACAAAGCAAUAUUACGUGGC", -3.72],
  ["CAUUAGCAAUAUUACGAAUA", -2.12],
  ["AGCUAGCAAUAUUACGUCUU", -0.517],
  ["CACCAGCAAUAUUACGAUGC", -2.96],
  ["CAUAAGCAAUAUUACGCCGG", -0.252],
  ["CAAUAGCAAUAUUACGGGGA", -3.12],
  ["CAUCAGCAAUAUUACGGCAC", -3.89],
  ["UAGCAGCAAUAUUACGAACU", -0.336],
  ["ACGAAGCAAUAUUACGGAGA", -2.86],
  ["UUGGAGCAAUAUUACGGGUC", -3.74],
  ["GUCUAGCAAUAUUACGUUCA", -0.225],
  ["UUAUAGCAAUAUUACGGGUC", -2.3],
  ["CUAGAGCAAUAUUACGUUCU", -3.79],
  ["CGCAAGCAAUAUUACGACAG", -0.409],
  ["ACACAGCAAUAUUACGUGCC", -1.71],
  ["UGGUAGCAAUAUUACGCGAA", -0.913],
  ["AGGCAGCAAUAUUACGCGCG", -0.446],
  ["AUAAAGCAAUAUUACGCUAG", -0.761],
  ["UCCGAGCAAUAUUACGGUGU", -1.74],
  ["GGAUAGCAAUAUUACGGAAU", -2.48],
  ["ACGCAGCAAUAUUACGUUGG", -2.94],
  ["CGUGAGCAAUAUUACGUUUG", -2.04],
  ["GAGAAGCAAUAUUACGAUUA", -0.739],
  ["CCGAAGCAAUAUUACGUGCU", -4],
  ["CCUGAGCAAUAUUACGUUUG", -3.6],
  ["GGGUAGCAAUAUUACGCUAA", -1.32],
  ["CGCUAGCAAUAUUACGGGGC", -2.87],
  ["UUAAAGCAAUAUUACGAAUG", -0.609],
  ["AGUUAGCAAUAUUACGACGC", -0.0216],
  ["GAUAAGCAAUAUUACGUUCA", -0.732],
  ["GAAUAGCAAUAUUACGACUC", -0.601],
  ["GUUAAGCAAUAUUACGGAAA", -1.77],
  ["GCCCAGCAAUAUUACGUACC", -1.05],
  ["UUAUAGCAAUAUUACGUGCA", -2.37],
  ["AAGUAGCAAUAUUACGGCUA", -1.01],
  ["AUCUAGCAAUAUUACGUUUG", -3.39],
  ["GUGCAGCAAUAUUACGAAUG", -2.95]
]}

* * *

- assay: self-splicing fitness, log relative to wild type (ln ratio); higher = more splicing; Tetrahymena group I intron in knt gene, E. coli kanamycin selection, DiMSum; sequences stand for … in CUCUCU…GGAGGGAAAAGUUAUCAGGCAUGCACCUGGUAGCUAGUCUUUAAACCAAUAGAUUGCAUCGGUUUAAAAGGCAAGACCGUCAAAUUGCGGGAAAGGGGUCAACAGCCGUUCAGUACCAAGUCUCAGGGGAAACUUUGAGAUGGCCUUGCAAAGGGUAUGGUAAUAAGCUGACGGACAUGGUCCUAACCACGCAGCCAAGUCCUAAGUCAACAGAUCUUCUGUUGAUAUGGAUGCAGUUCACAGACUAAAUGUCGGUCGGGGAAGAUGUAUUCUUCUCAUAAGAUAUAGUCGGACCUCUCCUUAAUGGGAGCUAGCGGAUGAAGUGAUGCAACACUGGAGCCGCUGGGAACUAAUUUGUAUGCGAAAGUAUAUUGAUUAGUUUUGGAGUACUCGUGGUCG
- experimental conditions: 37 °C
quantity name: self-splicing fitness (ln)

{"columns": ["chain", "quantity name", "result"],
 "data": [
  ["UGAGAGCAAUAUUACGUCUA", "self-splicing fitness (ln)", -0.679],
  ["UUUGAGCAAUAUUACGGCUC", "self-splicing fitness (ln)", -1.39],
  ["UCUCAGCAAUAUUACGGAGC", "self-splicing fitness (ln)", -2.27],
  ["GUCCAGCAAUAUUACGUUCA", "self-splicing fitness (ln)", 0.797],
  ["UCUCAGCAAUAUUACGAAGU", "self-splicing fitness (ln)", -0.109],
  ["UGUUAGCAAUAUUACGCUGG", "self-splicing fitness (ln)", 0.0911],
  ["CAUAAGCAAUAUUACGAAUG", "self-splicing fitness (ln)", -2.32],
  ["UAUUAGCAAUAUUACGUGAA", "self-splicing fitness (ln)", -1.87],
  ["UAUUAGCAAUAUUACGUUCG", "self-splicing fitness (ln)", -0.121],
  ["UAGUAGCAAUAUUACGACUG", "self-splicing fitness (ln)", -0.333],
  ["CAACAGCAAUAUUACGUCAA", "self-splicing fitness (ln)", -2.08],
  ["GAUUAGCAAUAUUACGCAGU", "self-splicing fitness (ln)", -1.44],
  ["CGGAAGCAAUAUUACGAGCG", "self-splicing fitness (ln)", -1.11],
  ["AACCAGCAAUAUUACGCAGA", "self-splicing fitness (ln)", -1.37],
  ["UGAUAGCAAUAUUACGUGUG", "self-splicing fitness (ln)", -0.804],
  ["UCACAGCAAUAUUACGGAGU", "self-splicing fitness (ln)", -3.4],
  ["UAAAAGCAAUAUUACGCUUA", "self-splicing fitness (ln)", -1.03],
  ["UGGUAGCAAUAUUACGAGGA", "self-splicing fitness (ln)", -2.09]
]}

* * *

- assay: self-splicing fitness, log relative to wild type (ln ratio); higher = more splicing; Tetrahymena group I intron in knt gene, E. coli kanamycin selection, DiMSum; sequences stand for … in CUCUCU…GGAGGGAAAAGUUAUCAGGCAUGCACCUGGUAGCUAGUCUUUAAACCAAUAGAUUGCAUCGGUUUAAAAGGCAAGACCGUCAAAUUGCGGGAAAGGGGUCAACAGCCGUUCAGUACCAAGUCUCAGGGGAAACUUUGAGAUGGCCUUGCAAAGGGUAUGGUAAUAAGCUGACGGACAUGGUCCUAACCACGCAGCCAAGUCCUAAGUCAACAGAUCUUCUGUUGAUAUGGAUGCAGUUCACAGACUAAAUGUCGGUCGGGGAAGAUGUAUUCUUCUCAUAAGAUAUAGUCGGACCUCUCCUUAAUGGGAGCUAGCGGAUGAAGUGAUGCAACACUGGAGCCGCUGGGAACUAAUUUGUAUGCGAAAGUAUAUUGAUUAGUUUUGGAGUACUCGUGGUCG
- experimental conditions: 37 °C
quantity name: self-splicing fitness (ln)

{"columns": ["chain", "result"],
 "data": [
  ["GCACAGCAAUAUUACGUCGG", -1.09],
  ["AAGCAGCAAUAUUACGCAAC", -1.49],
  ["AACAAGCAAUAUUACGGACC", -0.201],
  ["UCGUAGCAAUAUUACGCAGG", -2.17],
  ["CUGGAGCAAUAUUACGUGAC", -0.992],
  ["ACUUAGCAAUAUUACGCACA", -1.02],
  ["ACCGAGCAAUAUUACGGCGA", -0.768],
  ["GAAAAGCAAUAUUACGAGCA", -0.307],
  ["CGUAAGCAAUAUUACGAUCC", -1.82],
  ["UUUUAGCAAUAUUACGGCCA", -0.0772],
  ["GAGGAGCAAUAUUACGCUUA", -1.42],
  ["GGAGAGCAAUAUUACGCAUA", -2.73],
  ["AGAAAGCAAUAUUACGGGGA", -2.07],
  ["AUUUAGCAAUAUUACGAGAG", -2.7],
  ["UGCUAGCAAUAUUACGGCUU", -1.06],
  ["GGAAAGCAAUAUUACGCGUC", -2.89],
  ["AAGUAGCAAUAUUACGUAAG", -1.43],
  ["UGAUAGCAAUAUUACGACCG", 0.451],
  ["ACCUAGCAAUAUUACGAAAG", -2.2],
  ["UCGUAGCAAUAUUACGUGUA", -0.347],
  ["UCGCAGCAAUAUUACGACAA", -1.48],
  ["GUUCAGCAAUAUUACGUUUG", -1.22],
  ["GCGCAGCAAUAUUACGAUAC", -1.49],
  ["AGUCAGCAAUAUUACGACAG", -0.399],
  ["CCGCAGCAAUAUUACGGCAA", -2.53],
  ["AAUCAGCAAUAUUACGAGGU", -1.36],
  ["ACCCAGCAAUAUUACGUUCC", -1.02],
  ["CCGCAGCAAUAUUACGGUCA", -2.46],
  ["ACCGAGCAAUAUUACGUACG", -2.57],
  ["CGCUAGCAAUAUUACGGGAU", -2.4],
  ["CGCUAGCAAUAUUACGUAAU", -1.53],
  ["CUAAAGCAAUAUUACGCGGU", -1.2],
  ["CCGCAGCAAUAUUACGAAGU", -2.5],
  ["GCACAGCAAUAUUACGCGGU", -1.87],
  ["UAGAAGCAAUAUUACGCAUC", -3.37],
  ["CUGUAGCAAUAUUACGUCCG", 0.0507],
  ["CCAAAGCAAUAUUACGCCGG", -2.38],
  ["GCCAAGCAAUAUUACGGGUC", -2.8],
  ["GCCCAGCAAUAUUACGUGAG", -0.161],
  ["CAAAAGCAAUAUUACGAGCA", -1.97],
  ["GGUAAGCAAUAUUACGGUGA", -0.756],
  ["UACUAGCAAUAUUACGUUGC", -1.85],
  ["CCUAAGCAAUAUUACGUUUU", -1.3],
  ["GUCUAGCAAUAUUACGACUG", -2.73],
  ["ACACAGCAAUAUUACGAAAG", -2.06],
  ["GAGAAGCAAUAUUACGGUCA", 0.383],
  ["CCCAAGCAAUAUUACGUUGC", -2.16],
  ["AGGCAGCAAUAUUACGCAAA", -1],
  ["UUACAGCAAUAUUACGGAAU", -2.7],
  ["UUGGAGCAAUAUUACGAUUA", -1.3],
  ["AAGAAGCAAUAUUACGAGAG", -2.41],
  ["CAUUAGCAAUAUUACGAAUA", -0.64],
  ["AGCGAGCAAUAUUACGUUUG", -3.64],
  ["AGAAAGCAAUAUUACGGCCA", -0.181],
  ["GAUCAGCAAUAUUACGCUGC", -2.18],
  ["ACAUAGCAAUAUUACGCGUA", -0.613],
  ["UGUGAGCAAUAUUACGCGUA", -0.703],
  ["CACCAGCAAUAUUACGACUA", -1.3]
]}
